- Species on record: Rattus norvegicus
- Measurement protocol: Open TG-GATES - Regimen: Single
- Assay type: toxicity, organism-based, Sprague-Dawley
- Design: regimen Single, gender Male, age 6 weeks
- Reported conditions: in vivo, po, 10 mg/kg, 3 h, tissue Blood, route gavage, dose level Low
Quantity kind: MCHC (%)
Give bare numbers, in %.

Example entries and their recorded answers appear below.
Given item CN(C)CCN(Cc1cccs1)c1ccccn1 , the value recorded as its MCHC is 32.9

Given item CC1=C(/C=C/C(C)=C/C=C/C(C)=C/CO)C(C)(C)CCC1 [RETINOL] , the value recorded as its MCHC is 34.6

Given item CN(C)CCCN1c2ccccc2CCc2ccc(Cl)cc21 [CLOMIPRAMINE] , the value recorded as its MCHC is 32.4

Given item CN(C)CCCN1c2ccccc2CCc2ccccc21 [IMIPRAMINE] , the value recorded as its MCHC is 31.9

As a next step, examine the compound that follows.
Given item CC(C)OC(=O)C(C)(C)Oc1ccc(C(=O)c2ccc(Cl)cc2)cc1 [FENOFIBRATE] , the value recorded as its MCHC is 32.3
